System: MDA-MB-231 cells
assay_details: Vacuolation of MDA-MB-231 cells caused by inhibition of compounds on PIKfyve (microscopy); note: key: '+' represents the degree of vacuolation; ++: more '+' indicates more obvious vacuolation; +++: more '+' indicates more obvious vacuolation; ++++: more '+' indicates more obvious vacuolation; '−' represents no vacuolation
Format: cell-based
condition_description: MDA-MB-231 cells, 1 μM, 48 h

molecule	degree of vacuolation, 1 μM, 48 h
Cc1ccc(C(=O)Nc2ccc(CN3CCN(C)CC3)c(C(F)(F)F)c2)cc1Nc1nc(-c2ccncc2)nc2[nH]cnc12 [IV-a-5]	−
Cc1cn(-c2cc(NC(=O)c3ccc(C)c(Nc4nc(-c5ccncc5)nc5cc[nH]c45)c3)cc(C(F)(F)F)c2)cn1 [V-a-8]	+
Cc1ccc(C(=O)Nc2cc(C(F)(F)F)ccc2F)cc1Nc1nc(-c2cccnc2)c2[nH]ccc2n1 [V-c-13]	−
CS(=O)(=O)Nc1cccc(Nc2nc(-c3cccnc3)c3[nH]ccc3n2)c1 [V-c-1]	−
Cc1ccc(NC(=O)Nc2cccc(C(F)(F)F)c2)cc1Nc1nc(-c2cccnc2)c2[nH]ccc2n1 [V-c-15]	++
Cc1ccc(NC(=O)c2cccc(C(F)(F)F)c2)cc1Nc1cc(-c2cccnc2)nc2[nH]ccc12 [I-a-1]	+++
Cc1ccc(C(=O)Nc2cccc(Cl)c2)cc1Nc1cc(-c2cccnc2)nc2[nH]ccc12 [I-a-35]	++
Cc1ccc(C(=O)Nc2cccc(C(F)(F)F)c2)cc1Nc1nc(-c2cccnc2)nc2cc[nH]c12 [V-a-5]	+++

* * *

Test system: MDA-MB-231 cells
assay_details: Vacuolation of MDA-MB-231 cells caused by inhibition of compounds on PIKfyve (microscopy); note: key: '+' represents the degree of vacuolation; ++: more '+' indicates more obvious vacuolation; +++: more '+' indicates more obvious vacuolation; ++++: more '+' indicates more obvious vacuolation; '−' represents no vacuolation
Assay type: cell-based
condition_description: MDA-MB-231 cells, 1 μM, 48 h
reported_endpoint: degree of vacuolation, 1 μM, 48 h

compound	result
Cc1ccc(C(=O)Nc2cccc(C(F)(F)F)c2)cc1Nc1cc(-c2ccncc2)nc2[nH]ccc12	−
Cc1ccc(NC(=O)c2cccc(C(F)(F)F)c2)cc1Nc1nc(-c2cccnc2)nc2ccn(C)c12	++
Cc1ccc(NC(=O)c2cccc(C(F)(F)F)c2)cc1Nc1cc(-c2cccnc2)nc2c1ccn2C	++
Cc1ccc(C(=O)Nc2ccc(CN3CCN(C)CC3)c(C(F)(F)F)c2)cc1Nc1nc(-c2ccncc2)cn2ccnc12	−
COc1cccc(NC(=O)c2ccc(C)c(Nc3cc(-c4cccnc4)nc4[nH]ccc34)c2)c1	++
c1cncc(-c2nc(Nc3cc(N4CCOCC4)cc(N4CCOCC4)c3)nc3cc[nH]c23)c1	−
Cc1ccc(C(=O)Nc2cccc(C(F)(F)F)c2)cc1Nc1nc(-c2cccnc2)nc2c1ncn2C	+
Cc1cn(-c2cc(NC(=O)c3ccc(C)c(Nc4nc(-c5cccnc5)c5[nH]ccc5n4)c3)cc(C(F)(F)F)c2)cn1	−
Cc1ccc(C(=O)Nc2ccc(CN3CCN(C)CC3)c(C(F)(F)F)c2)cc1Nc1nc(-c2cccnc2)nc2c1ncn2C	−
Cc1ccc(NC(=O)c2cccc(C(F)(F)F)c2)cc1Nc1nc(-c2ccncc2)nc2ccn(C)c12	−
Cc1ccnc(Nc2nc(-c3cccc(NC(=O)c4ccc(N)nc4)c3)nc3ccsc23)c1	−
Cc1ccc(C(=O)Nc2cccc(C(F)(F)F)c2)cc1Nc1cc(-c2cccnc2)nc2c1ccn2C [I-b-4]	−
Cc1ccc(NC(=S)Nc2cccc(C(F)(F)F)c2)cc1Nc1nc(-c2cccnc2)c2[nH]ccc2n1	++
Cc1ccc(C(=O)Nc2cc(C(F)(F)F)ccc2Cl)cc1Nc1nc(-c2cccnc2)c2[nH]ccc2n1	−
Cc1cc(NS(=O)(=O)c2ccccc2)ccc1Nc1nc(-c2cccnc2)c2[nH]ccc2n1	−
Cc1ccc(C(=O)Nc2cccc(C(F)(F)F)c2)cc1Nc1cc(-c2ccncc2)nc2sccc12	++
Cc1ccc(NC(=O)c2cccc(C(F)(F)F)c2)cc1Nc1nc(-c2cccnc2)cn2ccnc12	+
COc1ccc(C(F)(F)F)cc1NC(=O)c1ccc(C)c(Nc2nc(-c3cccnc3)c3[nH]ccc3n2)c1	+++
Cc1ccc(C(=O)Nc2cccc(C(F)(F)F)c2)cc1Nc1cc(-c2cccnc2)nc2sccc12	++
Cc1ccc(NC(=O)c2cccc(C(F)(F)F)c2)cc1Nc1nc(-c2cccnc2)nc2[nH]cnc12	++
Cc1ccc(C(=O)Nc2cccc(C(F)(F)F)c2)cc1Nc1nc(-c2ccncc2)nc2cc[nH]c12	++
Cc1ccc(NC(=O)c2ccc(C(F)(F)F)cc2)cc1Nc1nc(-c2cccnc2)c2[nH]ccc2n1	−
Cc1ccc(NC(=O)c2cccc(C(F)(F)F)c2)cc1Nc1nc(-c2cccnc2)c2c(ccn2C)n1	+++
Cc1ccc(C(=O)Nc2cccc(OC(F)(F)F)c2)cc1Nc1cc(-c2cccnc2)nc2[nH]ccc12	++
O=C(Nc1cccc(C(F)(F)F)c1)c1cccc(Nc2cc(-c3ccncc3)nc3sccc23)c1	+
Cc1ccc(C(=O)Nc2cccc(C(F)(F)F)c2)cc1Nc1nc(-c2cccnc2)nc2c1ccn2C	+
Cn1ncc2c(NCc3cccnc3)nc(-c3cccc(NC(=O)Nc4cccc(C(F)(F)F)c4)c3)nc21	+
Cn1ncc2c(NCc3cccnc3)nc(-c3cccc(NC(=S)Nc4cccc(C(F)(F)F)c4)c3)nc21	−
COc1ccc(Br)cc1NC(=O)Nc1cccc(-c2nc(NCc3cccnc3)c3c(ccn3C)n2)c1	−
Cc1ccc(C(=O)Nc2cccc(C(F)(F)F)c2)cc1Nc1nc(-c2ccncc2)nc2[nH]ccc12	−
Cc1ccc(Nc2nc(-c3cccc(NC(=O)c4ccc(N)nc4)c3)nc3ccsc23)nc1	−
Cc1ccc(Nc2nc(-c3cccc(NC(=O)c4cccc(C(F)(F)F)c4)c3)nc3ccsc23)cn1	+

* * *

Test system: MDA-MB-231 cells
assay_details: Vacuolation of MDA-MB-231 cells caused by inhibition of compounds on PIKfyve (microscopy); note: key: '+' represents the degree of vacuolation; ++: more '+' indicates more obvious vacuolation; +++: more '+' indicates more obvious vacuolation; ++++: more '+' indicates more obvious vacuolation; '−' represents no vacuolation
Format: cell-based
condition_description: MDA-MB-231 cells, 10 μM, 24 h
reported_endpoint: degree of vacuolation, 10 μM, 24 h

compound	target_of_assay	reported_endpoint	result
CS(=O)(=O)Nc1cccc(Nc2nc(-c3cccnc3)c3[nH]ccc3n2)c1 [V-c-1]	MDA-MB-231 cells	degree of vacuolation, 10 μM, 24 h	++
O=C(Nc1cccc(C(F)(F)F)c1)c1cccc(Nc2nc(-c3cccnc3)nc3cc[nH]c23)c1 [V-a-1]	MDA-MB-231 cells	degree of vacuolation, 10 μM, 24 h	+
Cc1ccc(Nc2nc(-c3cccc(NC(=O)c4ccc(N)nc4)c3)nc3ccsc23)cn1 [VII-a-16]	MDA-MB-231 cells	degree of vacuolation, 10 μM, 24 h	+
Cc1ccc(C(=O)Nc2cccc(OC(F)(F)F)c2)cc1Nc1nc(-c2cccnc2)c2[nH]ccc2n1 [V-c-8]	MDA-MB-231 cells	degree of vacuolation, 10 μM, 24 h	+++
Cc1ccc(C(=O)Nc2cccc(OC(F)(F)F)c2)cc1Nc1nc(-c2ccncc2)nc2[nH]cnc12 [IV-a-7]	MDA-MB-231 cells	degree of vacuolation, 10 μM, 24 h	+
Cc1ccc(C(=O)Nc2cccc(C(F)(F)F)c2)cc1Nc1cc(-c2ccncc2)nc2[nH]ccc12 [I-a-21]	MDA-MB-231 cells	degree of vacuolation, 10 μM, 24 h	−
COc1ccc(C(F)(F)F)cc1NC(=O)c1ccc(C)c(Nc2nc(-c3cccnc3)c3[nH]ccc3n2)c1 [V-c-12]	MDA-MB-231 cells	degree of vacuolation, 10 μM, 24 h	+++
Cc1cn(-c2cc(NC(=O)c3ccc(C)c(Nc4nc(-c5cccnc5)nc5cc[nH]c45)c3)cc(C(F)(F)F)c2)cn1 [V-a-7]	MDA-MB-231 cells	degree of vacuolation, 10 μM, 24 h	+
Cc1ccc(NC(=O)c2cccc(C(F)(F)F)c2)cc1Nc1nc(-c2cccnc2)nc2c1cnn2C [III-b-10]	MDA-MB-231 cells	degree of vacuolation, 10 μM, 24 h	−
Cc1ccc(NC(=O)c2cccc(C(F)(F)F)c2)cc1Nc1nc(-c2cccnc2)nc2c1ncn2C [IV-b-7]	MDA-MB-231 cells	degree of vacuolation, 10 μM, 24 h	+
Cc1ccc(NC(=O)c2cccc(C(F)(F)F)c2)cc1Nc1nc(-c2cccnc2)cn2c(C)cnc12 [VI-b-7]	MDA-MB-231 cells	degree of vacuolation, 10 μM, 24 h	+
Cn1ncc2c(NCc3cccnc3)nc(-c3cccc(NC(=O)Nc4cccc(C(F)(F)F)c4)c3)nc21 [III-b-14]	MDA-MB-231 cells	degree of vacuolation, 10 μM, 24 h	+
Cc1ccc(NC(=O)c2cccc(C(F)(F)F)c2)cc1Nc1cc(-c2cccnc2)nc2sccc12 [VIII-a-3]	MDA-MB-231 cells	degree of vacuolation, 10 μM, 24 h	++
Cc1cc(NC(=O)c2ccccc2N)ccc1Nc1nc(-c2cccnc2)c2[nH]ccc2n1 [V-c-25]	MDA-MB-231 cells	degree of vacuolation, 10 μM, 24 h	−
Cc1cn(-c2cc(NC(=O)c3ccc(C)c(Nc4nc(-c5cccnc5)c5[nH]ccc5n4)c3)cc(C(F)(F)F)c2)cn1 [V-c-10]	MDA-MB-231 cells	degree of vacuolation, 10 μM, 24 h	++
Cc1ccc(NC(=S)Nc2cccc(C(F)(F)F)c2)cc1Nc1nc(-c2cccnc2)c2[nH]ccc2n1 [V-c-16]	MDA-MB-231 cells	degree of vacuolation, 10 μM, 24 h	++
Cc1ccc(NC(=O)c2cccc(C(F)(F)F)c2)cc1Nc1cc(-c2ccncc2)nc2[nH]ccc12 [I-a-10]	MDA-MB-231 cells	degree of vacuolation, 10 μM, 24 h	++
Cc1ccc(C(=O)Nc2cccc(C(F)(F)F)c2)cc1Nc1cc(-c2cccnc2)nc2sccc12 [VIII-a-7]	MDA-MB-231 cells	degree of vacuolation, 10 μM, 24 h	+++
COc1ccc(Br)cc1NC(=S)Nc1cccc(-c2nc(NCc3cccnc3)c3c(ccn3C)n2)c1 [V-b-30]	MDA-MB-231 cells	degree of vacuolation, 10 μM, 24 h	+
O=C(Nc1cccc(C(F)(F)F)c1)c1ccc(F)c(Nc2cc(-c3cccnc3)nc3[nH]ccc23)c1 [I-a-38]	MDA-MB-231 cells	degree of vacuolation, 10 μM, 24 h	++
Cc1ccc(C(=O)Nc2cccc(C(F)(F)F)c2)cc1Nc1nc(-c2cccnc2)nc2c1ncn2C [IV-b-2]	MDA-MB-231 cells	degree of vacuolation, 10 μM, 24 h	+
Cc1ccc(C(=O)Nc2ccc(CN3CCN(C)CC3)c(C(F)(F)F)c2)cc1Nc1cc(-c2cccnc2)nc2c1ccn2C [I-b-5]	MDA-MB-231 cells	degree of vacuolation, 10 μM, 24 h	+
Cn1ncc2c(NCc3cccnc3)nc(-c3cccc(NC(=S)Nc4cccc(C(F)(F)F)c4)c3)nc21 [III-b-15]	MDA-MB-231 cells	degree of vacuolation, 10 μM, 24 h	+
Cc1ccc(C(=O)Nc2cccc(C(F)(F)F)c2)cc1Nc1cc(-c2cccnc2)nc2[nH]ccc12 [I-a-20]	MDA-MB-231 cells	degree of vacuolation, 10 μM, 24 h	++++
Cc1ccc(C(=O)Nc2ccc(CN3CCN(C)CC3)c(C(F)(F)F)c2)cc1Nc1nc(-c2ccncc2)nc2[nH]cnc12 [IV-a-5]	MDA-MB-231 cells	degree of vacuolation, 10 μM, 24 h	+
O=C(Nc1cccc(Nc2nc(-c3cccnc3)c3[nH]ccc3n2)c1)c1cccc(C(F)(F)F)c1 [V-c-18]	MDA-MB-231 cells	degree of vacuolation, 10 μM, 24 h	+++
Cc1ccc(C(=O)Nc2cc(C(F)(F)F)ccc2Cl)cc1Nc1nc(-c2cccnc2)c2[nH]ccc2n1 [V-c-14]	MDA-MB-231 cells	degree of vacuolation, 10 μM, 24 h	++
Cc1ccc(C(=O)Nc2cccc(OC(F)(F)F)c2)cc1Nc1nc(-c2cccnc2)cn2c(Br)cnc12 [VI-b-4]	MDA-MB-231 cells	degree of vacuolation, 10 μM, 24 h	+
Cc1ccc(C(=O)Nc2cc(C(F)(F)F)cc(C(F)(F)F)c2)cc1Nc1cc(-c2cccnc2)nc2[nH]ccc12 [I-a-31]	MDA-MB-231 cells	degree of vacuolation, 10 μM, 24 h	−
O=C(Nc1cccc(C(F)(F)F)c1)c1cccc(Nc2cc(-c3ccncc3)nc3sccc23)c1 [VIII-a-6]	MDA-MB-231 cells	degree of vacuolation, 10 μM, 24 h	+
Cc1ccc(C(=O)Nc2cccc(Cl)c2)cc1Nc1cc(-c2cccnc2)nc2[nH]ccc12 [I-a-35]	MDA-MB-231 cells	degree of vacuolation, 10 μM, 24 h	+

From: patent US11352354B2
